- TARGET ENTITY: T1, human PDGFRb.hFc (human)
- T1 construct: Soluble dimeric construct with human Fc; also called hPDGFRb.hFc
- PROTOCOL DETAILS: SPR, mAb captured, 25 C
MEASURED PARAMETER: koff (s⁻¹)
Give bare numbers, in s⁻¹.

# count of solved cases: 2
1. H4H3098S (antibody, human IgG4, V domains shown, human IgG4 Fc (H4H prefix)) VH: EVQLVESGGGVVQPGRSLRLSCAASGFTFSNYGMHWVRQAPGKGLEWVTVIWYDGSYKYYADSVKGRFTISRDNSKNRLYLQMNSLRAEDTAVYYCARGELGDAFDIWGQGTMVTVSS VL: DIQMTQSPSTLSASVGDRLTITCRASQSISTWLAWYQQKPGKAPTLLIYKASSLESGVPSRFSGSGSGTDFTLTISSLQPDDFATYYCQQYKTSWTFGQGTKLEIKR :: 6.22e-05
2. H4H3374N (antibody, human IgG4, V domains shown, human IgG4 Fc (H4H prefix)) VH: QLQLQESGPGLVKPSETLSLTCTVSGGSITSSSYYWGWIRQPPGKGLEWIGSIYYRGSTNYNPSLKSRVTISVDSSKNQFYLKVSSVTAVDTAVYYCARQNGAARPSWFDPWGQGTLVTVSS VL: EIVLTQSPDTISLSPGERATLSCRASQSISSIYLAWYQQKPGQAPRLLIYGASSRVTGIPDRFSVSGSGTDFTLTISRLEPEDFAVYYCQHYGISPFTFGPGTKVDIR :: 8.93e-05

Enquiry: What measured koff goes with H4H3104S (antibody, human IgG4, V domains shown, human IgG4 Fc (H4H prefix)) VH: QVQLVESGGGLVQPGGSLRLSCAAAGFTFSHYWMSWVRQAPGKGLEWVATIKKDGSERYYVDSVKGRFTISRDNARNSMYLEMNSLRTEDTAIYYCARDIVTPNTDYYFGMDVWGQGTTVTVSS VL: DIQLTQSPSTLSASVGDRVTITCRASQSFNNWLSWYQQKPGKAPKLLIYMASTLESGVPSRFSGSGSGTDFTLTINSLQPDDFATYYCQQSNSYSRTFGHGTKVEIK ?
Return: 0.000146

Ref: patent US20170210813A1
